The measured values listed here are drawn from patent US8143307B2.

target: Human NHE-1 (Homo sapiens, UniProt P19634); experiment: Inhibitory effect on NHE-1 in PS120/NHE-1 cells (recovery from intracellular acidosis, BCECF fluorescence); settings: human NHE-1 expressed PS120 cells; concentration at which recovery from intracellular acidosis was 50% inhibited
Sequence (P19634 whole entry): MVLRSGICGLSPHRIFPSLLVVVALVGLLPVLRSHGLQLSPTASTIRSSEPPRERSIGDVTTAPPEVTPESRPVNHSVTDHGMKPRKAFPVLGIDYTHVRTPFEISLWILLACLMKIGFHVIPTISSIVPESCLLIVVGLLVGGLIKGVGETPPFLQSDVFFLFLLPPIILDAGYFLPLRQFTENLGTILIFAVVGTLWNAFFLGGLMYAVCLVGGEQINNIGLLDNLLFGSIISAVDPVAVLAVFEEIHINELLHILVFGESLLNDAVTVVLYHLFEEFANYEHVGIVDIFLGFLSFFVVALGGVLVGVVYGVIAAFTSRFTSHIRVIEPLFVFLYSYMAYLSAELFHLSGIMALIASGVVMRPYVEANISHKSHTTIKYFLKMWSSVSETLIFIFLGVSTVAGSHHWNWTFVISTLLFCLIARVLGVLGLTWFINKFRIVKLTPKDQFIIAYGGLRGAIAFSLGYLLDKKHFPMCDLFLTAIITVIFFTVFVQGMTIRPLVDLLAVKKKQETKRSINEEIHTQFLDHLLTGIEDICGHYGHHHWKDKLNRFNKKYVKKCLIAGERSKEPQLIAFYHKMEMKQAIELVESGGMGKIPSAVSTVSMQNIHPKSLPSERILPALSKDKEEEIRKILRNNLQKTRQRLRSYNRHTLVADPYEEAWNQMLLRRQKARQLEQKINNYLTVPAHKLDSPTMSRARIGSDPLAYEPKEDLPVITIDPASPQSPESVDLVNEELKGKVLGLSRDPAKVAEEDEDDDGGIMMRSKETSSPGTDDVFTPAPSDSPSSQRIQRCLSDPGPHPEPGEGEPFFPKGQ
# IC50 values compiled below

Examples from the recorded data:
>  <compound>
N=C(N)NC(=O)c1cc2c(C(F)(F)F)cccc2s1 [Example 43, Methanesulfonate]

>  <readout-label>
IC50

>  <meas-value>
< 0.5 µM

$$$$
>  <compound>
N=C(N)NC(=O)c1cc2c(I)cccc2s1 [Example 34, Methanesulfonate]

>  <readout-label>
IC50

>  <meas-value>
< 0.5 µM

$$$$
>  <compound>
NC(N)=NC(=O)c1cc2c(-c3cc(Cl)ccc3Cl)cccc2s1 [Example 20]

>  <readout-label>
IC50

>  <meas-value>
> 30 µM

$$$$
>  <compound>
Cc1ccc(-c2cccc3sc(C(=O)N=C(N)N)cc23)cc1 [Example 10, Methanesulfonate]

>  <readout-label>
IC50

>  <meas-value>
> 30 µM

$$$$

Using the record for COc1ccccc1-c1cccc2sc(C(=O)N=C(N)N)cc12 [Example 11, Methanesulfonate] , state its measured IC50.
> 30 µM
